Where do the numbers come from? From the supplement of paper PMC10567573.

B1: BCL2L13 (parent)
chain: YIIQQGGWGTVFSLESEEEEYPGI

Variants of: B1
Test: protein stability index of a GFP-peptide fusion (GPS, HEK-293T) (PSI 1-6); higher = more stable;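 further: lentivirally expressed fusions sorted by FACS into six bins by GFP to DsRed ratio, PSI derived from sequencing read proportions per bin multiplied by bin number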
Conditions: c terminus: a fixed tail appended
OUTCOME_MEASURE: protein stability index
// return just the number, without any unit appended

## Task Need protein stability index, item YIIQQGGWLTVFSLESEEEEYPGI [G9L]
## Result 3.44

## Task Also YIIQQGGWGTVFSLESEEEMYPGI [E20M] ?
## Result 1.31

## Task Input YIIQQGGWGTVFSLESEEQEYPGI [E19Q]
## Result 3.34

## Task Next record, please: YIIQQGGWVTVFSLESEEEEYPGI [G9V]
## Result 3.32

## Task Moving on to the next variant: YMIQQGGWGTVFSLESEEEEYPGI [I2M]
## Result 2.86

## Task And the next one, YIIQQGGWGTVFSLESEEWEYPGI [E19W] ?
## Result 2.31

## Task Consider next the variant YIIQQGGWGTVFSLKSEEEEYPGI [E15K] in the same way.
## Result 1.27

## Task Next variant: YIIQQGGWGTQFSLESEEEEYPGI [V11Q]
## Result 1.86

## Task Moving on to YIIQQGGKGTVFSLESEEEEYPGI [W8K]
## Result 2.1

## Task Then what about the variant YIIQWGGWGTVFSLESEEEEYPGI [Q5W] ?
## Result 2.16

## Task How about YIIQQGGWGSVFSLESEEEEYPGI [T10S] ?
## Result 2.34

## Task Okay, and YIIQQGGWGTVFSLESFEEEYPGI [E17F] ?
## Result 2.7

## Task Moving on to the next variant: YIEQQGGWGTVFSLESEEEEYPGI [I3E]
## Result 2.63

## Task Then what about the variant YIIQQGGWGTVFSLESEEEEYHGI [P22H] ?
## Result 1.7

## Task Could you do the same for YIIQQGGWGTFFSLESEEEEYPGI [V11F] , please?
## Result 2.93

## Task YIIQQGGWGTGFSLESEEEEYPGI [V11G] ?
## Result 3.31

## Task Try this variant too: YIIQQGGWGNVFSLESEEEEYPGI [T10N]
## Result 2.35

## Task How about YIIQQGGWGTVFSLESEELEYPGI [E19L] ?
## Result 2.41

## Task Consider next the variant YIIQQGGWGTVFSLESPEEEYPGI [E17P] in the same way.
## Result 4.07

## Task Request: YTIQQGGWGTVFSLESEEEEYPGI [I2T]
## Result 2.75

## Task Also check YIIQQGGLGTVFSLESEEEEYPGI [W8L]
## Result 1.99

## Task Similarly, YIIQQGGWGTVFSLESEEESYPGI [E20S] ?
## Result 1.82
